Tested on: TAB109
testProtocol: qHTS profiling for inhibitors of Plasmodium falciparum proliferation (AID 504749); further: nearly all actives have a fitted effect of over 60% in size
cond: P. falciparum in erythrocytes, SYBR Green DNA, 72 h; series mostly up to 12.8 µM
Inconclusive results are not listed. The source made the active and inactive calls. The call rests on the fitted dose curve; in most records, active means well fitted inhibition curve with a large enough effect; inconclusive means small, poorly fitted or top-dose-only effect; inactive means flat fitted curve, though single readings scatter.
Outcome codes: active, inactive

C[C@]12CCC(=O)C=C1CCC1C2C(=O)C[C@]2(C)C1CC[C@]2(O)C(=O)CO (stereo partly drawn) = inactive
CN(C)CCc1c[nH]c2ccc(CC3COC(=O)N3)cc12 (stereo not drawn) = inactive
OCC1OC(n2cnc3c(=S)nc[nH]c32)C(O)C1O (stereo not drawn) = inactive
C#C[C@]1(O)CC[C@@H]2[C@H]3CCC4=CCCC[C@@H]4[C@@H]3CC[C@@]21C = inactive
Cn1nnnc1SCC1=C(C(=O)O)N2C(=O)[C@@H](NC(=O)[C@@H](O)c3ccccc3)[C@@H]2SC1 = inactive
C[C@@]12C=CC(=O)C=C1CCC1C3CC(O)[C@@](O)(C(=O)CO)[C@]3(C)CC(O)[C@]12F (stereo partly drawn) = inactive
C[C@@H]1O[C@H](O[C@@H]2\C=C/C=C\C=C/C=C\C[C@H](C)OC(=O)/C=C\[C@H]3O[C@@H]3C[C@H](O)C[C@]3(O)C[C@@H](O)[C@@H](C(=O)O)[C@H](C2)O3)[C@@H](O)[C@H](N)[C@@H]1O (stereo in doubt) = inactive
CC(=O)[C@@]1(O)CC[C@H]2[C@H]3C[C@@H](C)C4=CC(=O)C=C[C@]4(C)[C@@]3(F)[C@@H](O)C[C@]21C = inactive
CCCC(=O)O[C@]1(C(=O)CO)CCC2[C@@H]3CCC4=CC(=O)CC[C@]4(C)C3C(O)C[C@]21C (stereo partly drawn) = inactive
O=C(N/N=C\c1ccc([N+](=O)[O-])o1)c1ccc(O)cc1 = active
CC(C)(C)NC[C@H](O)COc1cccc2c1CCC(=O)N2 = inactive
CCCCC[C@H](O)/C=C\[C@@H]1[C@H](O)CC(=O)[C@@H]1CCCCCCC(=O)O = inactive
CC(C)(C)NC[C@@H](O)COc1ccccc1C1CCCC1 = active
CC(C)(C)NC(=O)[C@@H]1CC[C@@H]2[C@@H]3CC[C@@H]4NC(=O)C=C[C@@]4(C)[C@H]3CC[C@]21C = inactive
C[C@H](N[C@@H](C)COc1ccccc1)[C@H](O)c1ccc(O)cc1 = inactive
COc1ccc(OC)c([C@H](O)CNC(=O)CN)c1 = inactive
NS(=O)(=O)c1cc2c(cc1C(F)(F)F)N[C@H](Cc1ccccc1)NS2(=O)=O = inactive
C[C@@H](CNC1CCCCC1)OC(=O)c1ccccc1 = active

---

System: TAB113
testProtocol: qHTS profiling for inhibitors of Plasmodium falciparum proliferation (AID 504749); further: nearly all actives have a fitted effect of over 60% in size
cond: P. falciparum in erythrocytes, SYBR Green DNA, 72 h; series mostly up to 12.8 µM
Results filed as inconclusive are left out. Activity calls are given as the source filed them. The call rests on the fitted dose curve; in most records, active means well fitted inhibition curve with a large enough effect; inconclusive means small, poorly fitted or top-dose-only effect; inactive means flat fitted curve, though single readings scatter.
Possible outcomes: active, inactive

CCC1OC(=O)C(C)[C@@H](O[C@H]2C[C@@](C)(OC)C(O)C(C)O2)C(C)[C@@H](O[C@@H]2OC(C)CC(N(C)C)C2O)[C@@](C)(O)CC(C)C(=O)[C@@H](C)C(O)[C@]1(C)O (some centres not stated) = inactive
C[C@H](Oc1ccccc1)C(=O)N[C@@H]1C(=O)N2[C@@H]1SC(C)(C)[C@@H]2C(=O)O = inactive
Cn1nnnc1SCC1=C(C(=O)O)N2C(=O)[C@@H](NC(=O)[C@@H](O)c3ccccc3)[C@@H]2SC1 = inactive
NCC1CCC(N)C(O[C@@H]2C(O)[C@H](O[C@H]3OC(CO)C(O)C(N)C3O)[C@@H](N)C[C@H]2N)O1 (some centres not stated) = inactive
NS(=O)(=O)c1cc2c(cc1Cl)N[C@@H](C(Cl)Cl)NS2(=O)=O = inactive
CCc1c(C)[nH]c2c1C(=O)[C@H](CN1CCOCC1)CC2 = inactive
C=CCOc1ccccc1OC[C@H](O)CNC(C)C = inactive
CCCCC[C@H](O)/C=C\[C@H]1[C@H](C/C=C\CCCC(=O)O)[C@@H](O)C[C@H]1O (tested in a mixture with another compound) = inactive
CC[C@](C)(CN(C)C)OC(=O)c1ccccc1 = inactive
CCOC(=O)C1=CC(OC(CC)CC)C(NC(C)=O)C(N)C1 (configuration not stated) = inactive
O=C1O[C@@H]([C@@H](O)CO)[C@@H](O)[C@H]1O = inactive
NC[C@@H]1O[C@H](O[C@H]2[C@H](O)[C@H](O[C@@H]3O[C@H](CO)[C@@H](O)[C@H](N)[C@@H]3O)[C@@H](N)C[C@H]2N)[C@@H](O)[C@H](O)[C@@H]1O = inactive
CCCCC[C@H](O)/C=C\[C@@H]1[C@H](O)CC(=O)[C@@H]1CCCCCCC(=O)O = inactive
CC[N+](CC)(CC)CC[C@](O)(c1ccccc1)C1CCCCC1 = inactive
OCC1OC(n2cnc3c(=S)nc[nH]c32)C(O)C1O (configuration not stated) = inactive
CC(=O)OC1CCC2C3CCc4cc(O)ccc4C3CCC12C (configuration not stated) = inactive
COc1ccc(CC(N)C(=O)NC2C(CO)OC(n3cnc4c(N(C)C)ncnc43)C2O)cc1 (configuration not stated) = active
CC1=C(C(=O)O)N2C(=O)[C@@H](NC(=O)[C@@H](N)c3ccc(O)cc3)[C@@H]2SC1 = inactive
CS(=O)(=O)c1ccc([C@H](O)[C@H](CO)NC(=O)C(Cl)Cl)cc1 = inactive
Cc1cccc(C)c1NC(=O)[C@H](C)N = inactive
CC(C)Oc1ccc2c(=O)cc(-c3ccccc3)oc2c1 = inactive
CCN[C@@H]1C[C@H](N)[C@H](O[C@H]2OC(CN)=CC[C@H]2N)[C@@H](O)[C@H]1O[C@H]1OC[C@@](C)(O)[C@@H](NC)[C@@H]1O = inactive
CC1(C)SC2C(N3C(=O)C(c4ccccc4)NC3(C)C)C(=O)N2C1C(=O)O (configuration not stated) = inactive
CC[C@H]1NC(=O)c2cc(S(N)(=O)=O)c(Cl)cc2N1 = inactive
O=C(NC[C@@H](O)CO)c1c(I)c(C(=O)NC[C@@H](O)CO)c(I)c(N(CCO)C(=O)CO)c1I = inactive
C[C@@H]1O[C@H](O[C@@H]2\C=C/C=C\C=C/C=C\C[C@H](C)OC(=O)/C=C\[C@H]3O[C@@H]3C[C@H](O)C[C@]3(O)C[C@@H](O)[C@@H](C(=O)O)[C@H](C2)O3)[C@@H](O)[C@H](N)[C@@H]1O (stereo in doubt) = inactive
CC(=O)O[C@H]1C[C@@]2(C)[C@H](C[C@@H](O)[C@H]3[C@@]4(C)CC[C@@H](O)[C@@H](C)[C@H]4CC[C@@]32C)C1=C(CCC=C(C)C)C(=O)O = inactive
CNC1C(OC2C(O[C@@H]3C(O)C(O)[C@@H](N=C(N)N)C(O)C3N=C(N)N)OC(C)[C@@]2(O)CO)OC(CO)C(O)C1O (some centres not stated) = inactive
C[C@H](CCC(=O)O)[C@H]1CC[C@@H]2[C@@H]3[C@@H](O)C[C@H]4C[C@@H](O)CC[C@@]4(C)[C@H]3CC[C@@]21C = inactive
COc1ccc(OC)c([C@H](O)CNC(=O)CN)c1 = inactive
CC(=C(CCOP(=O)(O)O)SC(=O)c1ccccc1)N(C=O)Cc1cnc(C)nc1N = inactive
CC(=O)OCC(=O)[C@@]1(O)[C@H](C)C[C@@H]2[C@H]3CCC4=CC(=O)C=C[C@]4(C)[C@]3(F)[C@@H](O)C[C@@]21C = inactive
